Provenance of the data: PubChem BioAssay (EPA / NIEHS)

Assay: ATG_TAL_CIS: Attagene CIS-FACTORIAL HepG2 Assay for human TAL Basal Promoter (AID 2282966);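 further: background control endpoint measuring basal TAL promoter reporter mRNA not a specific factor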
Details: HepG2 Attagene cis-factorial TAL promoter reporter; actives raise or lower the signal
Calls of active or inactive are those of the source. How the source made its calls: active means hit-call score of the fitted dose curve at least 0.9, where 1 is the maximum; inactive means score below 0.9.
Outcomes: active, inactive

>>> assigned_label("O=C(OCCCCCOC(=O)c1ccccc1)c1ccccc1")
"inactive"
>>> assigned_label("COc1cc(-c2nc(NC(=O)c3cc4cc(C)cc(C)c4n3CC(=O)O)sc2CCC2CCCCC2)c(OC)cc1Cl")
"active"
>>> assigned_label("CCCCCCCCCCCC(=O)OC")
"inactive"
>>> assigned_label("Nc1ccccc1N")
"inactive"
>>> assigned_label("CCOc1ccc2c(c1)C(C)=CC(C)(C)N2")
"inactive"
>>> assigned_label("C=CCc1ccc(O)c(OC)c1")
"inactive"
>>> assigned_label("Cc1ccc(N(C)C)cc1")
"inactive"
>>> assigned_label("Cc1cccc(C)c1O")
"inactive"
